Each recorded value in this set is attributed to patent US11904051B2.

- EXPERIMENT_DESCRIPTION: Small-angle neutron scattering (SANS) of liposomes as a function of temperature
- Type: physicochemical
- CONDITIONS: 28 ° C.
OBSERVATION_TYPE: most probable bilayer thickness (nm)

CCCCCCCCCCCCCCCCC(=O)NCC(CNC(=O)CCCCCCCCCCCCCCCC)OP(=O)([O-])OCC[N+](C)(C)C [Rad-PC-Rad] ... 4.55
CCCCCCCCCCCCCCCCCC(=O)NCC(CNC(=O)CCCCCCCCCCCCCCCCC)OP(=O)([O-])OCC[N+](C)(C)C [Sad-PC-Sad, 1,3-distearamidopropan-2-phosphocholine] ... 3.51
CCCCCCCCCCCCCCCC(=O)NC[C@H](COP(=O)([O-])OCC[N+](C)(C)C)NC(=O)CCCCCCCCCCCCCCC [Pad-Pad-PC] ... 5.55
CCCCCCCCCCCCCCCC(=O)OC[C@H](COP(=O)([O-])OCC[N+](C)(C)C)OC(=O)CCCCCCCCCCCCCCC [DPPC] ... 4.62
CCCCCCCCCCCCCCCC(=O)OCC(COC(=O)CCCCCCCCCCCCCCC)OP(=O)([O-])OCC[N+](C)(C)C [Pes-PC-Pes] ... 4.46
